Item-by-item account of EC50
- Target Or System: UniProtKB P28335
- Sequence (P28335 33-458): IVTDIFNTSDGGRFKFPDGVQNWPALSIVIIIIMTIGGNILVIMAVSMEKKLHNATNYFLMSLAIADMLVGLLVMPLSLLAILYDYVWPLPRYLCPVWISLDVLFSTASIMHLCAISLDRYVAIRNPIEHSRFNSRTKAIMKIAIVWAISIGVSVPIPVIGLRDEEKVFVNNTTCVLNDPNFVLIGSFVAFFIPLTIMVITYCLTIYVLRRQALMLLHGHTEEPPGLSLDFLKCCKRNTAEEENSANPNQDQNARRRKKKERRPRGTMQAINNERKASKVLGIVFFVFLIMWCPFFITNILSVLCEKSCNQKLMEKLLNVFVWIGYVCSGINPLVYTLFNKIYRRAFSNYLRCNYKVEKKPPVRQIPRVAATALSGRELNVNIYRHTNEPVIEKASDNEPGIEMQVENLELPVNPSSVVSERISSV
- Test Details: Calcium flux (FLIPR) assay, human 5-HT2C-INI stably expressed in HEK-293 (Flp-In-293) cells
- Measurement Context: EC50, nM 5-HT2C, human 5-HT2C-INI in HEK-293 cells, FLIPR; NA = no activity at 10 μM
Measured Attribute: EC50 (nM)

1) CCOc1ccc(Cl)c(Cl)c1C1CC1CN (single isomer, unassigned; (-)) [(−)-Example 37] : 30
2) NCC1CC1c1c(OCCF)ccc(Cl)c1Cl (single isomer, unassigned; (+)) [(+)-Example 38] : 232
3) NCC1CC1c1c(OCCF)ccc(Cl)c1Cl (single isomer, unassigned; (-)) [(−)-Example 38] : 224
4) CCOc1ccc(Cl)c(F)c1C1CC1CN (single isomer, unassigned; (-)) [(−)-Example 30] : 97
5) NCC1CC1c1cc(Cl)c(F)cc1OCCF (single isomer, unassigned; (+)) [(+)-Example 4] : 24
6) CCOc1ccc(Cl)c(F)c1C1CC1CN (single isomer, unassigned; (+)) [(+)-Example 30] : 28
7) C#CCOc1ccc(Cl)cc1C1CC1CN (single isomer, unassigned; (+)) [(+)-Example 26] : 63
8) NCC1CC1c1cc(F)c(F)cc1OCCF (single isomer, unassigned; (+)) [(+)-Example 42] : 7.3
9) CCOc1ccc(Cl)cc1C1CC1CN (single isomer, unassigned; (+)) [(+)-Example 11] : 13
10) C#CCOc1cc(F)c(Cl)cc1C1CC1CN (single isomer, unassigned; (-)) [(−)-Example 6] : 117
11) CCCOc1cc(F)c(F)cc1C1CC1CN (single isomer, unassigned; (+)) [(+)-Example 43] : 26
12) NCC1CC1c1cc(F)c(F)cc1OCCF (single isomer, unassigned; (-)) [(−)-Example 42] : 772
13) NCC1CC1c1cc(Cl)c(Cl)cc1OCCF (single isomer, unassigned; (-)) [(−)-Example 34] : 435
14) CSCCOc1ccc(Cl)cc1C1CC1CN (single isomer, unassigned; (-)) [(−)-Example 18] : 1760
15) C=CCOc1cc(F)c(Cl)cc1C1CC1CN (single isomer, unassigned; (-)) [(−)-Example 5] : 308
16) C=CCOc1ccc(F)c(F)c1C1CC1CN (single isomer, unassigned; (+)) [(+)-Example 49] : 36
17) NCC1CC1c1c(OCCF)ccc(Cl)c1F (single isomer, unassigned; (-)) [(−)-Example 31] : 386
18) C=CCOc1ccc(F)c(Cl)c1C1CC1CN (single isomer, unassigned; (+)) [(+)-Example 53] : 96
19) C=C(F)COc1ccc(Cl)cc1C1CC1CN (single isomer, unassigned; (+)) [(+)-Example 25] : 133
20) NCC1CC1c1cc(Cl)c(Cl)cc1OCCF (single isomer, unassigned; (+)) [(+)-Example 34] : 18
21) CCOc1ccc(Cl)cc1C1CC1CN (single isomer, unassigned; (-)) [(−)-Example 11] : 646
22) CCOc1ccc(F)c(Cl)c1C1CC1CN (single isomer, unassigned; (-)) [(−)-Example 51] : 38
23) C=CCOc1ccc(F)c(F)c1C1CC1CN (single isomer, unassigned; (-)) [(−)-Example 49] : 151
24) CCCOc1ccc(F)cc1C1CC1CN (single isomer, unassigned; (+)) [(+)-Example 7] : 11
25) NCC1CC1c1cc(Cl)ccc1OCCF (single isomer, unassigned; (-)) [(−)-Example 19] : 1130
26) C=CCOc1cc(F)c(Cl)cc1C1CC1CN (single isomer, unassigned; (+)) [(+)-Example 5] : 42
27) COc1ccc(F)c(F)c1[C@@H]1C[C@H]1CN (single isomer, unassigned) [(+)-Example 45] : 9.5
28) CCCOc1ccc(F)cc1C1CC1CN (single isomer, unassigned; (-)) [(−)-Example 7] : 296
29) C=CCOc1ccc(F)c(Cl)c1C1CC1CN (single isomer, unassigned; (-)) [(−)-Example 53] : 101
30) C=C(C)COc1ccc(Cl)cc1C1CC1CN (single isomer, unassigned; (+)) [(+)-Example 24] : 212

Attribution: patent US10407381B2
